target.or.system: T1, human IL-33 (R&D Systems, #3625-IL-010/CF) (human) (UniProt O95760)
T1 sequence (looked up): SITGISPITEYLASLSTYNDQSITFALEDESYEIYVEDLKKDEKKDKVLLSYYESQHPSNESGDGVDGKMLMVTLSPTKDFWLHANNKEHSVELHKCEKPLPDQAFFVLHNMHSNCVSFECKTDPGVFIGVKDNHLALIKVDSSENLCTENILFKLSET
assay.name: SPR Biacore T200, 37 C
Entries annotated with measured koff
attribute.measured: koff (s⁻¹)

>>> recorded_value("H4H9671P (antibody, from another filing, IgG4, V domains shown) VH: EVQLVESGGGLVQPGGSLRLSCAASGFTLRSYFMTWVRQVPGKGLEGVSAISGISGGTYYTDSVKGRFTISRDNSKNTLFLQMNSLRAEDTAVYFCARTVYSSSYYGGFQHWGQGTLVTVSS VL: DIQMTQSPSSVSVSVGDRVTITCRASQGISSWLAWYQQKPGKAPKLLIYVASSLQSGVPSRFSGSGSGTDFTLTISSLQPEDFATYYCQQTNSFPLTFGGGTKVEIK")
0.00203
>>> recorded_value("H4H9665P (antibody, from another filing, IgG4, V domains shown) VH: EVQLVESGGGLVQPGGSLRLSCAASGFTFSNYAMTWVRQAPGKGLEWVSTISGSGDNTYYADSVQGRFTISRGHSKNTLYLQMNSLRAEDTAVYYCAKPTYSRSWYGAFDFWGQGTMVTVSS VL: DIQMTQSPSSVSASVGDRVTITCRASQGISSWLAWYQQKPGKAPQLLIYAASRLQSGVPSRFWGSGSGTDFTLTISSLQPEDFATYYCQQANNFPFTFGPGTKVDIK")
0.00235
>>> recorded_value("H4H9660P (antibody, from another filing, IgG4, V domains shown) VH: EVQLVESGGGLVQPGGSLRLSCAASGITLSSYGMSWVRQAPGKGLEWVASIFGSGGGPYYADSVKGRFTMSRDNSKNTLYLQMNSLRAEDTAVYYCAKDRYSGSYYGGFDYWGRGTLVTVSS VL: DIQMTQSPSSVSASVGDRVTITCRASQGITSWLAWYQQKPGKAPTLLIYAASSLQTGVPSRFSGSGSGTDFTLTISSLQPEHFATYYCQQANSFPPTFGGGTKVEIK")
0.000413
